Test system: MDA-MB-231
Test: NCI tumour cell line growth inhibition, 48 h
The source made the active and inactive calls. Rule as the data show it: active = GI50 up to about 1.1 µM and inactive = higher.
The reply should name one outcome from active, inactive

Solved entries:
>>> class("COCN(CCC1=CCCCC1)C(=O)OC")
"inactive"
>>> class("C/C(=N\\Nc1nc2ccccc2o1)c1cc2ccccc2cn1")
"active"
>>> class("Cc1ccc(S(=O)(=O)N2C3C=CC(C3)[C@@H]2C(Cl)(Cl)Cl)cc1 (stereo not given in full)")
"inactive"
>>> class("CCOP(C)(=O)C(N)Cc1ccc(OC)c(OC)c1 (stereo not given)")
"inactive"
>>> class("O=C(Nc1cc2cc([N+](=O)[O-])ccc2oc1=O)c1cccs1")
"inactive"
>>> class("Nc1ccc2c(c1)Cc1ccccc1-2")
"inactive"
>>> class("Cc1ccc(SCC(OCn2cnc3c(N)ncnc32)[C@H](C)F)cc1 (stereo not given in full)")
"inactive"
>>> class("CN(C)C(=S)/N=C1\\SC(=N\\c2ccccc2)/C(=N/c2ccccc2)N1c1ccc([N+](=O)[O-])cc1")
"inactive"
>>> class("c1ccc(CCCNc2nnnc3ccccc23)cc1")
"inactive"
>>> class("CO/N=C(/C(=O)N(C(=O)/C(=N/OC)c1csc(NC(c2ccccc2)(c2ccccc2)c2ccccc2)n1)n1cnn(CC(=O)OC(C)(C)C)c1=O)c1csc(NC(c2ccccc2)(c2ccccc2)c2ccccc2)n1")
"inactive"

Let's switch to this molecule now.
Q) In this assay, the call recorded for CC[C@@]1(O)C(=O)OCc2c1cc1n(c2=O)Cc2cc3cc(O)ccc3nc2-1 [HYDROXYCAMPTOTHECIN] was what?
A) active

====

System: PC-3
Experiment: NCI tumour cell line growth inhibition, 48 h
Active and inactive are the calls of the source. No stated cut-off is given here; in the data, active = GI50 up to about 1.1 µM and inactive = higher.
The reply should name one outcome from active, inactive

Solved entries:
>>> class("O=Nc1c(-c2cccc([N+](=O)[O-])c2)nc2cnccn12")
"inactive"
>>> class("CC1(C)OCC2(CO1)CSCCCSCC1(COC(C)(C)OC1)CSCCCSC2")
"inactive"
>>> class("O=C(O)c1cnccc1-c1cc(=O)[nH]n1-c1ccccc1")
"inactive"

Q) In this assay, the call recorded for N#CC(NNC(=O)c1c(Cl)c(Cl)c(Cl)c(Cl)c1-c1nc2cc(C(=O)c3ccccc3)ccc2[nH]1)c1cccc(Oc2ccccc2)c1 (stereo not given) was what?
A) inactive

Q) In this assay, the call recorded for CCOC(=O)C1(C(=O)OCC)Nc2cccnc2N(C)N1 was what?
A) inactive

Q) In this assay, the call recorded for NC(=O)N/N=C/c1ccccc1O was what?
A) inactive

Q) In this assay, the call recorded for c1ccc(CCCNc2nnnc3ccccc23)cc1 was what?
A) inactive

Q) In this assay, the call recorded for CNc1cccnc1/C=N/N=C(/N)S was what?
A) inactive

Q) In this assay, the call recorded for CCc1c(Cl)nc(Cl)nc1Cl was what?
A) active

Q) In this assay, the call recorded for CO/N=C(/C(=O)N(C(=O)/C(=N/OC)c1csc(NC(c2ccccc2)(c2ccccc2)c2ccccc2)n1)n1cnn(CC(=O)OC(C)(C)C)c1=O)c1csc(NC(c2ccccc2)(c2ccccc2)c2ccccc2)n1 was what?
A) inactive

====

Tested on: SK-OV-3
Assay: NCI tumour cell line growth inhibition, 48 h
Active and inactive are the calls of the source. Rule as the data show it: active = GI50 up to about 1.1 µM and inactive = higher.
MEASURED_ENDPOINT: GI50

>>> reading("C/C(O)=C/C(=O)c1[nH]c(C(=O)O)cc1C1CCN(Cc2ccccc2)C1=O (configuration not stated)")
"22.8 µM (inactive)"

Please report GI50 for every entry that follows.
1. Cn1cnc([N+](=O)[O-])c1Sc1nc(N)nc2c1ncn2Cc1ccccc1
2. CCOC(=N)CC(=O)NC(C)c1ccccc1 (configuration not stated)
3. O=[N+]([O-])c1cccnc1-n1cnc2ccccc21
4. Nc1cc(S(N)(=O)=O)ccc1SSc1ccc(S(N)(=O)=O)cc1N

A)
1: 24.5 µM (inactive); 2: > 100 µM (inactive); 3: > 100 µM (inactive); 4: > 100 µM (inactive)

Please report GI50 for every entry that follows.
1. O=C(c1ccccc1)C1C(c2ccccc2[N+](=O)[O-])N1C1CCCCC1 (configuration not stated)
2. CO/N=C(/C(=O)N(C(=O)/C(=N/OC)c1csc(NC(c2ccccc2)(c2ccccc2)c2ccccc2)n1)n1cnn(CC(=O)OC(C)(C)C)c1=O)c1csc(NC(c2ccccc2)(c2ccccc2)c2ccccc2)n1
3. COC(=O)c1cc(/C=C\c2cc(OC)ccc2OC)ccc1OC
4. O=C(c1ccco1)N(C(=S)N1CCN(c2ccccc2)CC1)C1CCCCC1
5. O=C1C=CC(=O)N1c1ccc(I)cc1

A)
1: 22.1 µM (inactive); 2: > 10 µM (inactive); 3: 37.3 µM (inactive); 4: > 100 µM (inactive); 5: 16.5 µM (inactive)

Please report GI50 for every entry that follows.
1. Oc1ccc(/C=C\c2nnc(/C=C\c3ccc(O)c(O)c3)s2)cc1O
2. Cc1nc(Nc2nnc(-c3cc([N+](=O)[O-])cc([N+](=O)[O-])c3C)o2)sc1C(=O)CC(=O)Cc1nc2ccc(Cl)cc2nc1O
3. COC(=N)C(C)C
4. COC(=O)C(C(=O)Cc1ccccc1[N+](=O)[O-])C(=O)OC
5. COc1ccc(C(O)c2ccccn2)cc1 (configuration not stated)

A)
["13.6 µM (inactive)", "> 100 µM (inactive)", "> 100 µM (inactive)", "> 100 µM (inactive)", "> 100 µM (inactive)"]

Please report GI50 for every entry that follows.
1. O=C(CC(=O)Nc1ccccc1)NNC(c1cc(/N=N/c2ccc(Br)cc2)ccc1O)P(O)O (configuration not stated)
2. Nc1ccc2c(c1)Cc1ccccc1-2
3. O=C1OC(c2ccccc2)=N/C1=C/NC(CS)C(=O)O (configuration not stated)
4. CC1=CC(=O)/C(=C/N2C(=O)CNC2=S)C(=O)O1

A)
["5.48 µM (inactive)", "> 100 µM (inactive)", "> 100 µM (inactive)", "> 100 µM (inactive)"]

Please report GI50 for every entry that follows.
1. C[C@@H](NC(C#N)c1ccco1)c1ccccc1 (some centres not stated)
2. CC(=O)C1C(=O)C(=O)N(c2ccc([N+](=O)[O-])cc2[N+](=O)[O-])C1=O (configuration not stated)
3. COc1cc(-c2ccccc2)c(OC)cc1CCl

A)
["> 100 µM (inactive)", "83.6 µM (inactive)", "> 100 µM (inactive)"]

====

Tested on: NCI-H522
Assay: NCI tumour cell line growth inhibition, 48 h
Activity calls are given as the source filed them. Cut-off read from the data, not from the text of the source: active = GI50 up to about 1.1 µM and inactive = higher.
The reply should name one outcome from YES for active, NO for inactive

>>> class("COc1ccc(/C=C/C(=O)c2cc(C(=O)O)c(OC)cc2OC)cc1OC")
"NO"
>>> class("COc1cc([C@H]2Oc3c(c(O)cc4oc(-c5ccccc5)cc(=O)c34)O[C@@H]2CO)ccc1O")
"NO"

Q) In this assay, the call recorded for COC(=O)C1=CC2C(=O)OC1CC2C#N (centres undefined) was what?
A) NO

====

Tested on: NCI-H522
Experiment: NCI tumour cell line growth inhibition, 48 h
Activity calls are given as the source filed them. Cut-off read from the data, not from the text of the source: active = GI50 up to about 1.1 µM and inactive = higher.
Field: GI50. Provide a value for each of the compounds that follow.

Please report GI50 for every entry that follows.
1. COC(=O)C(C(=O)Cc1ccccc1[N+](=O)[O-])C(=O)OC
2. COC(=O)C(CCSC)NC(=O)Cc1ccc(C(=O)c2ccccc2)cc1 (stereo unspecified)
3. CN(C)C(=S)/N=c1\ss/c(=N\C(=S)N(C)C)n1C1CCCCC1
4. O=C(O)Cc1ccccc1CCc1ccccc1Cl
5. O=C1Sc2cc3ccccc3cc2C(=O)Sc2cc3ccccc3cc21
6. Cc1ccc(-n2nnc(C(N)=O)c2O)cc1

A)
> 100 µM (inactive)
57.8 µM (inactive)
25.5 µM (inactive)
> 100 µM (inactive)
7.45 µM (inactive)
> 100 µM (inactive)

====

Test system: EKVX
Assay: NCI tumour cell line growth inhibition, 48 h
The source made the active and inactive calls. Cut-off read from the data, not from the text of the source: active = GI50 up to about 1.1 µM and inactive = higher.
MEASURED_ENDPOINT: GI50

// worked examples, GI50 included
>>> reading("O=C(/C=C/c1ccc(Cl)cc1)c1ccc(Cl)c(Cl)c1")
"26.4 µM (inactive)"
>>> reading("NC(=S)N/N=C/C(=C/Nc1ccccc1)[N+](=O)[O-]")
"> 100 µM (inactive)"
>>> reading("CC(=O)OCC1OC(n2c(C)c(C(C)=O)c(-c3ccco3)c(C#N)c2=S)C(OC(C)=O)C(OC(C)=O)C1OC(C)=O (stereo not given)")
"> 100 µM (inactive)"
>>> reading("COc1cc([N+](=O)[O-])c(S(=O)(=O)O)cc1-n1nc(C(=O)Nc2ccccc2)n[n+]1-c1cc(S(=O)(=O)[O-])c([N+](=O)[O-])cc1OC")
"> 100 µM (inactive)"
>>> reading("CC(=O)C(=NNc1ccc(-n2c(C)nc3ccc(Br)cc3c2=O)cc1)C(C)=O")
"> 100 µM (inactive)"

Please report GI50 for every entry that follows.
1. COc1cc(Cl)cc(N(O)C(C)=O)c1OCc1ccccc1
2. C[C@]1(O)CC(=O)c2c(c(-c3ccc4cc5c(c(O)c4c3O)C(=O)C[C@@](C)(O)C5)c3cccc(O)c3c2O)C1
3. O=C(Nc1cc2cc([N+](=O)[O-])ccc2oc1=O)c1cccs1
4. CCOC(=O)c1nnsc1NC(=O)Nc1ccc(Cc2ccc(NC(=O)Nc3snnc3C(=O)OCC)cc2)cc1
5. O=Nc1c(-c2cccc([N+](=O)[O-])c2)nc2cnccn12

A)
1. 30.9 µM (inactive)
2. 11.2 µM (inactive)
3. 61.7 µM (inactive)
4. 85.3 µM (inactive)
5. 34 µM (inactive)
